- TARGET_OR_TEST_SYSTEM: T1, human amylin-3(a) receptor (human, UniProt P30988 25-474; O60896 24-148)
- T1 sequence (looked up) 1: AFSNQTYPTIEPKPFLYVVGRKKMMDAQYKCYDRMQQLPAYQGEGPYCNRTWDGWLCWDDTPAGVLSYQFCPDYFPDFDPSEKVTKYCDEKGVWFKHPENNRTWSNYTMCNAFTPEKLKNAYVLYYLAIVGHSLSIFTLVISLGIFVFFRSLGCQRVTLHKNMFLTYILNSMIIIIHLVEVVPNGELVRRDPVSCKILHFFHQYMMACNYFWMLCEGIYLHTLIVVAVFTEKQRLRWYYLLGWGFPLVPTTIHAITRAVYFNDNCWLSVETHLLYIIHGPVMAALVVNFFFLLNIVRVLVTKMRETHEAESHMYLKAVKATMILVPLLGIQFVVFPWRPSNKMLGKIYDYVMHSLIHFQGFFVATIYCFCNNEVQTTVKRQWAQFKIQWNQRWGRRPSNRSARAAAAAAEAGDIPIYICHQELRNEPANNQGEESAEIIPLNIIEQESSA
- T1 sequence (looked up) 2: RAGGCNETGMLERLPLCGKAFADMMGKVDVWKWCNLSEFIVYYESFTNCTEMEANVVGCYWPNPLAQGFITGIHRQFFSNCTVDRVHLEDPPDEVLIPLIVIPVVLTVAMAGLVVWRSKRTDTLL
- TEST_DESCRIPTION: cell-based or functional assay
Numbered stars: 1 amine (or outer) side, 2 acyl side, 3 side chain; on linkers, the order of the positions; unused ones are H or OH. Square brackets hold non-standard residues; d marks the D form. Side chains are listed from the residue outwards. * marks the point of attachment. C18 diacid = O=C(O)CCCCCCCCCCCCCCCCC(=O)*; C16 diacid = O=C(O)CCCCCCCCCCCCCCC(=O)*; γGlu = O=C(O)[C@H](CCC(=O)[*:2])N[*:1]; Chem. 28 = not defined here; AEEA = NCCOCCOCC(=O)O; Aib = CC(C)(N)C(=O)O
Classification scheme (hAMYR3 Potency, no HSA, EC50 [pM]): low: < 3 pM; intermediate: ≥ 3 pM and < 4 pM; high: ≥ 4 pM

Any idea which band Compound 72 (peptide) peptide: Y[Aib]EGTFTSDYSILLEEQAAREFIEWLLAGGPSRGAPPPSGGGEASHLSTQTQGRLSAELHK([AEEA-AEEA-γGlu-C18 diacid])LATLPRTETGSGSP-NH2 is in?
high

Any idea which band Compound 51 (reading uncertain) peptide: H[Aib]HGTFTSDYSILLEEQAAREFIEWLLAGGPSSGALAQTLAQTLASHLSTAQTQRLSAELHK(Chem. 28)LATLPRTETGSGSP-NH2 is in?
high

Any idea which band Compound 97 (peptide) peptide: Y[Aib]EGTFTSDYSILLEEQAAREFIEWLLAGGPSSGAGQAPGASHLSTAQTQRLSAELHK([AEEA-AEEA-γGlu-C18 diacid])LATLPRTETGSGSP-NH2 is in?
low

Any idea which band Compound 86 (peptide) peptide: H[Aib]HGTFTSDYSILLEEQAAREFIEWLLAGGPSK([AEEA-AEEA-γGlu-C18 diacid])GAPPPSGGGASELSTAALGRLSAELHRLATLPRTETGSGSP-NH2 is in?
intermediate

Any idea which band Compound 109 (not fully specified; reading uncertain) peptide: Y[Aib]EGTFTSDYSILLEEQAAREFIEWLLAGGPSSGAPPPSGGGEASHLSTAQTQRLSAK(Chem. 28)LHRLATLPRTETGSGSP-NH2 is in?
intermediate

Any idea which band Compound 28 (reading uncertain) peptide: Y[Aib]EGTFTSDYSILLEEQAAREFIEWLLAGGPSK(Chem. 28)GEASELSTAALARLSAELHRLATLPRTETGSGSP-NH2 is in?
low

Any idea which band Compound 48 (reading uncertain) peptide: Y[Aib]EGTFTSDYSILLEEQAAREFIEWLLAGGPSSGALAQTLAQTLASHLSTAQTQRLSAELHK(Chem. 28)LATLPRTETGSGSP-NH2 is in?
intermediate

Any idea which band Compound 88 (peptide) peptide: H[Aib]HGTFTSDYSILLEEQAAREFIEWLLAGGPSSGEASHLSTAALGRLSAELHK([AEEA-AEEA-γGlu-C18 diacid])LATLPRTETGSGSP-NH2 is in?
intermediate

Any idea which band Compound 47 (reading uncertain) peptide: H[Aib]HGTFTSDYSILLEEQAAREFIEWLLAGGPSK(Chem. 28)GAGQAPGQAPGASHLSTAQTQRLSAELHELATLPRTETGSGSP-NH2 is in?
low

Any idea which band Compound 35 (reading uncertain) peptide: Y[Aib]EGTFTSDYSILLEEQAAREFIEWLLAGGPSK(Chem. 28)GEASHLSTAQTARLSAELHELATLPRTETGSGSP-NH2 is in?
high

Any idea which band Compound 59 (peptide) peptide: Y[Aib]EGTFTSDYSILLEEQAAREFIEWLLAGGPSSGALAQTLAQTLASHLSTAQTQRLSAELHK([AEEA-AEEA-γGlu-C16 diacid])LATLPRTETGSGSP-NH2 is in?
intermediate

Any idea which band Compound 84 (peptide) peptide: H[Aib]HGTFTSDYSILLEEQAAREFIEWLLAGGPSSGEASHLSTAQTQRLSAELHRLATLPK([AEEA-AEEA-γGlu-C18 diacid])TETGSGSP-NH2 is in?
high

Any idea which band Compound 108 (reading uncertain) peptide: H[Aib]HGTFTSDYSILLEEQAAREFIEWLLAGGPSSGALQAPGQAPLASHLSTAQTARLSAELHK(Chem. 28)LATLPRTETGSGSP-NH2 is in?
low

Any idea which band Compound 17 (peptide) peptide: H[Aib]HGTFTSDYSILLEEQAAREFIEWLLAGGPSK([AEEA-AEEA-γGlu-C16 diacid])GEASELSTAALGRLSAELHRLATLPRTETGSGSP-NH2 is in?
high

Any idea which band Compound 64 (peptide) peptide: H[Aib]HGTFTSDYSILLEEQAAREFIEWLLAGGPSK([AEEA-AEEA-γGlu-C18 diacid])GEASQLSTAALGRLSAELHQLATLPRTETGSGSP-NH2 is in?
low
